assay: Dose-response study, retina exposure after 0.25% and 0.5% rifampicin eye drops, LC/MS; format: in vivo, Sprague-Dawley rats; details: male, Sprague-Dawley, rat, topical, 37.5 micro gram
Property Label: concentration at 1 hr (ng/g)
API: value field is a number in ng/g; no unit string.

Query: Consider the compound `CO[C@H]1/C=C/O[C@@]2(C)Oc3c(C)c(O)c4c(O)c(c(/C=N/N5CCN(C)CC5)c(O)c4c3C2=O)NC(=O)/C(C)=C\C=C\[C@H](C)[C@H](O)[C@@H](C)[C@@H](O)[C@@H](C)[C@H](OC(C)=O)[C@@H]1C` and give its measured concentration at 1 hr.
Response: 1580
